molecular target: Cathepsin B (Homo sapiens) (UniProt P07858); experiment: human cathepsin B inhibitors, primary screen, biochemical, fluorogenic substrate (AID 453); conditions: purified cathepsin B, fluorescence, active compounds read high,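 tested at 10 µM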;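 also: 0% = enzyme with no compound and 100% = no enzyme blank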
The campaign covered roughly 63,000 compounds. About 75 (0.1%) were called active. The entries come from a sample that favours actives as a whole.
measured.parameter: inhibition (%)
Note: unit % is implicit; provide only the numeric part.

Examples from the recorded data:
CCOc1cc(-c2conc2N)cc(OCC)c1OCC: 0.88
O=C(NCc1ccccn1)c1cnc2sccn2c1=O: -2.74
CCOC(=O)N1CCN(C(=O)C2CCCN(c3ncnc4c3sc3cccc(F)c34)C2)CC1 (stereo unspecified): -3.56
CCCOc1ccc(/C(O)=C2/C(=O)C(=O)N(CCN(C)C)C2c2ccc(OC)c(OC)c2)cc1 (stereo unspecified): 0.77
Fc1ccc(Br)cc1/C=N/n1cnnc1: 3.66

Alright, here's another molecule for you.
Name the recorded inhibition of the item `CCOC(=O)CCc1c(C)c(C#N)c2[nH]c3ccccc3n2c1=O` in your answer.
2.21

Data provenance: PubChem BioAssay AID453
